- Test system: BDF1 mice, B16 melanoma ip, median survival T/C
- ASSAY REMARKS: NCI In Vivo Anticancer Drug Screen. Data for tumor model B16 Melanoma (intraperitoneal) in B6D2F1 (BDF1) mice
- CONDITIONS USED: endpoint: median survival time; dose: 200.0 mg/kg/injection; schedule: Q04DX003 (ip); vehicle: Klucel (hydroxypropylcellulose) (HPC); higher = longer survival
Toxic doses and inconclusive results are not listed. Peptide text beside a SMILES is read from it.
OBSERVATION TYPE: T/C

query: Reported T/C for BDF1 mice, B16 melanoma ip, median survival T/C, given O=C(/C=C/C(=O)Oc1c(Cl)cc(Cl)cc1Cl)Oc1c(Cl)cc(Cl)cc1Cl ?
result: 92 % of control

query: Reported T/C for BDF1 mice, B16 melanoma ip, median survival T/C, given CCOC(=O)Nc1cc(N)cc(NC(=O)OCC)c1 ?
result: 94 % of control

query: Reported T/C for BDF1 mice, B16 melanoma ip, median survival T/C, given Cc1nc(N)[nH]c(=O)c1Br ?
result: 93 % of control

query: Reported T/C for BDF1 mice, B16 melanoma ip, median survival T/C, given O=[N+]([O-])c1ccc(C(O)CC(O)(C(F)(F)F)C(F)(F)F)cc1 (configuration not stated) ?
result: 97 % of control

query: Reported T/C for BDF1 mice, B16 melanoma ip, median survival T/C, given O=C1Cc2cccc3c2C(C1)CN3C(=O)c1ccccc1 (configuration not stated) ?
result: 106 % of control

query: Reported T/C for BDF1 mice, B16 melanoma ip, median survival T/C, given Cc1ccc(NS(=O)(=O)c2ccc([N+](=O)[O-])cc2)cc1 ?
result: 97 % of control

query: Reported T/C for BDF1 mice, B16 melanoma ip, median survival T/C, given COC(=O)C1CCC(C(=O)O)CC1 (configuration not stated) ?
result: 100 % of control

query: Reported T/C for BDF1 mice, B16 melanoma ip, median survival T/C, given Cc1cc(NS(=O)(=O)c2ccc(N)cc2)no1 ?
result: 97 % of control

query: Reported T/C for BDF1 mice, B16 melanoma ip, median survival T/C, given CC(C)CC(N)C(=O)NCC(=O)NC(Cc1ccccc1)C(=O)O (stereo not drawn) (H-Leu-Gly-Phe-OH; configuration not given here) ?
result: 97 % of control

query: Reported T/C for BDF1 mice, B16 melanoma ip, median survival T/C, given COc1ccc(NC(=O)Oc2cc(C)cc(C)c2)cc1 ?
result: 106 % of control

query: Reported T/C for BDF1 mice, B16 melanoma ip, median survival T/C, given CCNC(=O)Nc1ccc(C)cc1C ?
result: 96 % of control

query: Reported T/C for BDF1 mice, B16 melanoma ip, median survival T/C, given COc1ccc(OC)c(/C=C/C(=O)c2ccc(Cl)cc2)c1 ?
result: 109 % of control

query: Reported T/C for BDF1 mice, B16 melanoma ip, median survival T/C, given O=CNC(CSC(c1ccccc1)c1ccccc1)C(=O)O (configuration not stated) ?
result: 94 % of control

query: Reported T/C for BDF1 mice, B16 melanoma ip, median survival T/C, given COc1ccc2c(c1)C(=O)CCN2 ?
result: 107 % of control

query: Reported T/C for BDF1 mice, B16 melanoma ip, median survival T/C, given COc1cccc(CN(C)CCC(=O)O)c1 ?
result: 102 % of control

query: Reported T/C for BDF1 mice, B16 melanoma ip, median survival T/C, given Cc1ccc(NC(=O)Nc2cccc(Cl)c2)cc1C ?
result: 92 % of control

query: Reported T/C for BDF1 mice, B16 melanoma ip, median survival T/C, given CCOC(=O)NC(C(=O)OC)C(=O)OC ?
result: 97 % of control

====

- Tested on: BDF1 mice, B16 melanoma ip, median survival T/C
- ASSAY REMARKS: NCI In Vivo Anticancer Drug Screen. Data for tumor model B16 Melanoma (intraperitoneal) in B6D2F1 (BDF1) mice
- CONDITIONS USED: endpoint: median survival time; dose: 25.0 mg/kg/injection; schedule: Q01DX009 (ip); vehicle: saline with Tween-80
- Procedure: The antitumor activity of compounds was measured in mice bearing transplantable tumors. Survival or tumor size were measured and the results are expressed as the measurement made in the treated group (T) divided by the measurement made in the vehicle treated control group (C). The tumor model used in this assay is B16 Melanoma (intraperitoneal) in B6D2F1 (BDF1) mice
Inconclusive results and toxic doses are left out. The calls were made as follows: active = survival T/C of 150% or more; inactive = T/C below 125% in these data.
Hi! Could you answer with just one of these? active, inactive

query: What did this assay record as the result for CSCCC1NC(=O)C(/C(C)=N\NC(N)=O)=C1O (stereo unspecified) ?
result: inactive

query: What did this assay record as the result for CCN1CSC(=S)N(CC)C1 ?
result: inactive

query: What did this assay record as the result for O=C(CCCCl)CC(O)(C(F)(F)Cl)C(F)(F)Cl ?
result: inactive

query: What did this assay record as the result for CCCCN(C)/N=N/c1nc[nH]c1C(N)=O ?
result: inactive

query: What did this assay record as the result for CCCCCc1ccc(C(=O)O)cc1 ?
result: inactive

query: What did this assay record as the result for ClC1CCC[N-]C1.ClC1CCC[N-]C1.O=C(O)CC(=O)O.[Pt+2] (stereo unspecified) ?
result: inactive

query: What did this assay record as the result for CCN(CC)CCNc1ccc(C)c2sc3ccc(O)cc3c(=O)c12 ?
result: active

query: What did this assay record as the result for O=NN(CCBr)C(=O)Nc1ccccc1 ?
result: active

query: What did this assay record as the result for CCCCCCCC/C=C\CCCCCCCC(=O)N(C)CC(=O)O ?
result: inactive

query: What did this assay record as the result for CCOC(=O)C(CC)(CCC(C)C)C(=O)OCC ?
result: inactive

query: What did this assay record as the result for CC1(C)CC1(Br)Br ?
result: inactive

query: What did this assay record as the result for Oc1ccc2ccccc2c1Cc1c(O)ccc2ccccc12 ?
result: inactive

query: What did this assay record as the result for COc1cc2c(c(OC)c1OC)C(=O)/C(=C\c1ccccc1)O2 ?
result: inactive

query: What did this assay record as the result for CC(C)N(C(=O)c1ccc(C(=O)N(c2ccccc2)C(C)C)cc1)c1ccccc1 ?
result: inactive

query: What did this assay record as the result for COc1cc(O)c2c(c1)Cc1cc(C)cc(O)c1C2=O ?
result: inactive

query: What did this assay record as the result for COc1ccc(Cl)cc1NC(=O)C(Br)C(Br)C(=O)O (stereo unspecified) ?
result: inactive

query: What did this assay record as the result for CC1(C)N=C(N)N=C(N)N1c1ccc(OCCCCNC(=O)c2ccc(S(=O)(=O)F)cc2)c(Cl)c1 ?
result: inactive

query: What did this assay record as the result for CCOC(=O)c1cc(C(=O)OCC)c(=O)oc1OCC ?
result: inactive

query: What did this assay record as the result for COC(=O)Nc1ccc(Cc2ccc(NC(=O)OC)cc2)cc1 ?
result: inactive

query: What did this assay record as the result for CC(=O)c1ccc2ccccc2c1O ?
result: inactive

query: What did this assay record as the result for NC1CC[N-]CC1.NC1CC[N-]CC1.NC1CC[N-]CC1.NC1CC[N-]CC1.[Cl][Rh][Cl] ?
result: inactive

query: What did this assay record as the result for Cc1ccc[n+](CCc2c[nH]c3ccccc23)c1 ?
result: inactive

query: What did this assay record as the result for CC(C)n1c(=S)[nH]c2ccccc2c1=O ?
result: inactive

query: What did this assay record as the result for CCC(C)(CC)OC(N)=O ?
result: inactive

query: What did this assay record as the result for O=c1[nH]c(=O)n(C2CC(O)C(CO)O2)cc1F (stereo unspecified) ?
result: active

query: What did this assay record as the result for Cc1cccc(OCC(=O)O)c1 ?
result: inactive

====

- Tested on: BDF1 mice, B16 melanoma ip, median survival T/C
- ASSAY REMARKS: NCI In Vivo Anticancer Drug Screen. Data for tumor model B16 Melanoma (intraperitoneal) in B6D2F1 (BDF1) mice
- CONDITIONS USED: endpoint: median survival time; dose: 100.0 mg/kg/injection; schedule: Q04DX003 (ip); vehicle: saline with Tween-80; higher = longer survival
Toxic doses and inconclusive results are not listed. Square brackets hold non-standard residues; d marks the D form. Peptide text beside a SMILES is read from it. ξ: configuration not given here. Ac5c = NC1(C(=O)O)CCCC1; ξS = NC(CO)C(=O)O
OBSERVATION TYPE: T/C

query: Reported T/C, compound NC(C/[N+]([O-])=N/O)C(=O)O (stereo not given) : ____
result: 100 % of control

query: Reported T/C, compound NC(CO)C(=O)NC1(C(=O)O)CCCC1 (stereo not given) (H-[ξS]-[Ac5c]-OH) : ____
result: 123 % of control

query: Reported T/C, compound c1ccc(-c2nc(N3CCOCC3)nc3ccccc23)cc1 : ____
result: 104 % of control

query: Reported T/C, compound C/C(=C\c1ccccc1)C(=O)c1ccccc1 : ____
result: 100 % of control

query: Reported T/C, compound CCOC(=O)C(=CN1CCCCCC1)C(=O)OCC : ____
result: 97 % of control

query: Reported T/C, compound C=CCn1c(=S)[nH]c2ccccc2c1=O : ____
result: 105 % of control

query: Reported T/C, compound CC#CCOCC1CN(c2ccccc2)C(=O)O1 (stereo not given) : ____
result: 97 % of control

query: Reported T/C, compound OC1CC2CC1C=C2c1ccccc1 (stereo not given) : ____
result: 102 % of control

query: Reported T/C, compound CO[C@@H](C=O)O[C@@H](C=O)CO : ____
result: 100 % of control

query: Reported T/C, compound NC(=O)Oc1ccccc1 : ____
result: 106 % of control
